- measurementProtocol: Antioxidant activity assessed as inhibition of hydroxyl radical at 100 ug/mL
- Assay type: functional
Give inhibition for every item shown.
Write it as a number; the unit % goes unstated.

Assign inhibition to the following record: Cc1cc(=O)oc2c1ccc1c(O)c(C=O)cc(C=O)c12
52

Check the records and state inhibition for OC[C@@H](O)[C@@H](O)[C@H](O)[C@H](O)CO
48

Note down inhibition recorded for CCCCCCCN/C=C1/C=C(C=O)c2c(ccc3c(C)cc(=O)oc23)C1=O
49

State its inhibition for this compound: Cc1c(C)c2c(c(C)c1O)CC[C@@](C)(CCC[C@H](C)CCC[C@H](C)CCCC(C)C)O2
48
